test: AUClast in Sprague-Dawley rat at 3 mg/kg, po; type: ADME, organism-based; design: time 0 - last, dose 3 mg/kg, route oral; conditions: plasma
MEASURED PARAMETER: AUC(0-t) (ng·h/mL)
Kindly provide the numeric value in ng·h/mL only, without the unit symbol.

Lookup: Give reported AUC(0-t) value for Cc1cc(OCP2(=O)OCC[C@@H](c3cccc(Cl)c3)O2)cc(C)c1Cc1ccc(O)c(C(C)C)c1 (stereo partly specified) [MB07811]
Found: 26

###

Target sequence: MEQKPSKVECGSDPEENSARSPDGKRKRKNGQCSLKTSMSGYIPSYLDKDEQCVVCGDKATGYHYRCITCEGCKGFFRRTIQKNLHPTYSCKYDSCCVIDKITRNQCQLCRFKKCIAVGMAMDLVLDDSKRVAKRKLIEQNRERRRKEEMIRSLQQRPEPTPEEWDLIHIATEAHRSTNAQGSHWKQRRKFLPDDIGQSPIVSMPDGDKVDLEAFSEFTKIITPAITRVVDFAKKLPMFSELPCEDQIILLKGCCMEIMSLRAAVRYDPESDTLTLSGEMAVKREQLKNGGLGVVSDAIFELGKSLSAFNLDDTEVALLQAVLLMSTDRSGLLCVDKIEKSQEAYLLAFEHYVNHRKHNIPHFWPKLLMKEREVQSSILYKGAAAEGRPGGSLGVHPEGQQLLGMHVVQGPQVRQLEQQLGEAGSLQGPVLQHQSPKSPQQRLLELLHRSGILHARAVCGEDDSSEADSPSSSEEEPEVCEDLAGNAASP
MEASURED PARAMETER: Ki

Lookup: Give me measured Ki, please, for this molecule: CC(C)c1cc(Oc2c(Br)cc(CCP(=O)(O)O)cc2Br)ccc1O
Found: 0.0421 µM

Lookup: Identify measured Ki corresponding to Cc1cc(OCP(=O)(O)O)cc(C)c1Oc1ccc(O)c(C(C)C)c1
Found: 0.183 µM

Lookup: Complete the entry with Ki for CC(C)c1cc(Oc2c(Br)cc(CP(=O)(O)O)cc2Br)ccc1O
Found: 0.235 µM

###

tested on: Rattus norvegicus; test: Reduction in total plasma cholesterol level in cholesterol-fed Sprague-Dawley rat at 0.2 mg/kg, ip after 24 hrs; type: functional; design: scale not given: the % may be the effect or the level left; conditions: route intraperitoneal
MEASURED PARAMETER: Activity (%)
Give just the number in %; leave the unit off.

Lookup: # return recorded Activity for input CCC(C)c1cc(Cc2c(C)cc(OCP(=O)(O)O)cc2C)ccc1O (centres undefined)
Found: 20.1

Lookup: Fill in reported Activity for this entry: CC(C)c1cc(Oc2c(I)cc(OCP(=O)(O)O)cc2I)ccc1O
Found: 44.7

Lookup: Entry Cc1cc(OCP(=O)(O)O)cc(C)c1Cc1ccc(O)c(C(C)C)c1 needs its Activity filled in; supply it.
Found: 37.2

Lookup: Input CC(C)c1cc(Oc2c(I)cc(CP(=O)(O)O)cc2I)ccc1O , output reported Activity.
Found: 39.4

Lookup: Quote Activity reported for CC(C)c1cc(Oc2c(Br)cc(CCP(=O)(O)O)cc2Br)ccc1O please.
Found: 34.5

Lookup: Fill in Activity for record Cc1cc(NCP(=O)(O)O)cc(C)c1Cc1ccc(O)c(C(C)C)c1
Found: 32.3

Lookup: Answer with reported Activity of CC(C)c1cc(Oc2c(Br)cc(NCP(=O)(O)O)cc2Br)ccc1O
Found: 47.7

Lookup: Complete the entry with Activity for CCc1cc(Cc2c(C)cc(OCP(=O)(O)O)cc2C)ccc1O
Found: 7.5

Lookup: Answer with reported Activity of CC(C)c1cc(Oc2c(Br)cc(OCP(=O)(O)O)cc2Br)ccc1O
Found: 42.6
